# assay.system: MAP Kinase Pathway (GST-MEK / GST-MAPK)
# assay.notes: Cascade Assay for Inhibitors of the MAP Kinase Pathway (APK Assay)
# measurement.parameters: 50 μM [γ32P]ATP; compounds assessed at 10 μM
test.readout: pIC50
# pIC50: negative log10 of molar concentration; output just the value

query: Lab request: please report pIC50 under test system MAP Kinase Pathway (GST-MEK / GST-MAPK) for CN1CCN(CCCNc2cc3c(cn2)cc(-c2c(Cl)cccc2Cl)c(=O)n3C)CC1
result: 5.00

###

# Tested on: SW-620 cells
# assay.notes: Human Colon Carcinoma Clonogenic Assay, SW-620
# Type: cell-based
# measurement.parameters: SW-620, 2 days with drug, colonies after approximately 2 weeks
test.readout: IC50 (nM)
Use nM as the unit, but write only the number.

query: Lab request: please report IC50 under test system SW-620 cells for CN1CCN(CCOc2ccc(Nc3cc4c(cn3)cc(-c3c(Cl)cccc3Cl)c(=O)n4C)cc2)CC1
result: 2800

###

Consider the following compounds; for each one, report its pIC50.
# assay.system: cdk2/cyclinA (Homo sapiens, UniProt P24941)
# assay.notes: Cyclin-Dependent Kinase Assay, cdk2/cyclinA
# measurement.parameters: 12 mM ATP, retinoblastoma substrate
# Description: Cyclin-Dependent Kinase Assays (cdk2/cyclinE, cdk2/cyclinA, cdkl/cyclinB) All components except the ATP were added to the wells, and the plate was placed on a plate mixer for 2 minutes. The reaction was begun by addition of [^32 P]ATP, and the plate was incubated at 25° C. for 15 minutes. […] The wells were then washed 5 times with 0.2 mL of 10% TCA and ^32 P incorporation determined with a beta plate counter (Wallace Inc., Gaithersburg, Md.).
# pIC50: negative log10 of molar concentration; output just the value

query: Returns the measured pIC50 for the input compound. Input: CCn1c(=O)ccc2cnc(Nc3ccc(OC)cc3)cc21 [Example X]
result: 6.08

query: Returns the measured pIC50 for the input compound. Input: CCn1c(=O)ccc2cnc(Nc3ccc(N4CCN(C)CC4)cc3)cc21 [Example Y]
result: 5.46

query: Returns the measured pIC50 for the input compound. Input: CCn1c(=O)ccc2cnc(Nc3ccccc3)cc21 [Example W]
result: 6.06

query: Returns the measured pIC50 for the input compound. Input: CCn1c(=O)ccc2cnc(Nc3ccc(N4CCOCC4)cc3)cc21 [Example Z]
result: 5.85

###

# assay.system: EGFr (Human EGF receptor tyrosine kinase) (Homo sapiens)
# Construct: Human EGF receptor tyrosine kinase is isolated from A431 human epidermoid carcinoma cells; endogenous in cells
# Sequence (P00533 25-1210): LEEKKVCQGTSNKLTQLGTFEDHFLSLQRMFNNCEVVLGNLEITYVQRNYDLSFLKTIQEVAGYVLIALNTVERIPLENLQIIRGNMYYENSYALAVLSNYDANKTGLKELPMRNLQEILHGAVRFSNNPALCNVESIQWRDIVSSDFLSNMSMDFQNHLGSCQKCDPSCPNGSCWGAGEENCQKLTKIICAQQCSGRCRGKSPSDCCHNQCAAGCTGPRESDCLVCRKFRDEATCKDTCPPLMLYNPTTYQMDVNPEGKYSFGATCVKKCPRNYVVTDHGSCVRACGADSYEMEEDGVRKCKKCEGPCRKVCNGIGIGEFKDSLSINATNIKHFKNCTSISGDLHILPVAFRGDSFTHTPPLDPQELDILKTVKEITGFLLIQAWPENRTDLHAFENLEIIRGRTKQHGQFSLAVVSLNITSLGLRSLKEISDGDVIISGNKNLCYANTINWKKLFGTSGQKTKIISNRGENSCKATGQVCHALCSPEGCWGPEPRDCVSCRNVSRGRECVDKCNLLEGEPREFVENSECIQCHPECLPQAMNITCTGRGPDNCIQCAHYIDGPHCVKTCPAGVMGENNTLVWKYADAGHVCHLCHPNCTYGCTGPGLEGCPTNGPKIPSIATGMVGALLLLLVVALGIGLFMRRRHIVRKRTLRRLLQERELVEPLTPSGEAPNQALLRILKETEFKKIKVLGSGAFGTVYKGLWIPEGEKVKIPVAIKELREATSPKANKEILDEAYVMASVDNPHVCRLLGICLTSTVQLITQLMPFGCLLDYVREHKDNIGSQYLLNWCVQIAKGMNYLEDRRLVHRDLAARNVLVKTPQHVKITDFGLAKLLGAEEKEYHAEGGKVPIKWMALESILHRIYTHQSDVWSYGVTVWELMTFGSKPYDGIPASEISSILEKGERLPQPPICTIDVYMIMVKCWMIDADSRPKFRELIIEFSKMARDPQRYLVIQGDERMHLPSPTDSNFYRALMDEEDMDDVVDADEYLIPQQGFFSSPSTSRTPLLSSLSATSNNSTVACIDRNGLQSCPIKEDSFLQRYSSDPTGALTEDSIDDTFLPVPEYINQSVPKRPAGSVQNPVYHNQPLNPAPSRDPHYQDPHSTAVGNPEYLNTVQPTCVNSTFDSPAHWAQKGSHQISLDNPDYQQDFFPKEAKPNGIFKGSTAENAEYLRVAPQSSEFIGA
# assay.notes: EGFr tyrosine kinase assay
# measurement.parameters: 10 μM ATP
Consider the following molecules; for each one, report its IC50.
Use µM as the unit, but write only the number.

query: Returns the measured IC50 for the input molecule. Input: CN1CCN(CCCNc2cc3c(cn2)cc(-c2c(Cl)cccc2Cl)c(=O)n3C)CC1
result: 3.2

query: Returns the measured IC50 for the input molecule. Input: CCN(CC)CCOc1ccc(Nc2cc3c(cn2)cc(-c2c(Cl)cccc2Cl)c(=O)n3C)cc1
result: 0.59

query: Returns the measured IC50 for the input molecule. Input: CCN(CC)CCCCNc1cc2c(cn1)cc(-c1c(Cl)cccc1Cl)c(=O)n2C
result: 3.8

###

# assay.system: cdk2/cyclinE (Homo sapiens, UniProt P24941)
# assay.notes: Cyclin-Dependent Kinase Assay, cdk2/cyclinE
# measurement.parameters: retinoblastoma substrate
test.readout: IC50 (µM)
Use µM as the unit, but write only the number.

query: Returns the measured IC50 for the input compound. Input: CCn1c(=O)ccc2cnc(Nc3ccc(N4CCCCC4)cc3)cc21 [Example AA]
result: 5

query: Returns the measured IC50 for the input compound. Input: CCn1c(=O)ccc2cnc(Nc3ccc(N4CCN(C)CC4)cc3)cc21 [Example Y]
result: 5.8

query: Returns the measured IC50 for the input compound. Input: CCn1c(=O)ccc2cnc(Nc3ccc(OC)cc3)cc21 [Example X]
result: 1.3

query: Returns the measured IC50 for the input compound. Input: CCn1c(=O)ccc2cnc(Nc3ccccc3)cc21 [Example W]
result: 1.1

query: Returns the measured IC50 for the input compound. Input: CCn1c(=O)ccc2cnc(Nc3ccc(N4CCOCC4)cc3)cc21 [Example Z]
result: 3

###

# assay.system: PDGFr (mouse PDGF-β receptor tyrosine kinase) (Mus musculus)
# Construct: PCR primers are designed to amplify a fragment of DNA that codes for the intracellular tyrosine kinase domain
# Sequence (P05622 599-961 limits assumed): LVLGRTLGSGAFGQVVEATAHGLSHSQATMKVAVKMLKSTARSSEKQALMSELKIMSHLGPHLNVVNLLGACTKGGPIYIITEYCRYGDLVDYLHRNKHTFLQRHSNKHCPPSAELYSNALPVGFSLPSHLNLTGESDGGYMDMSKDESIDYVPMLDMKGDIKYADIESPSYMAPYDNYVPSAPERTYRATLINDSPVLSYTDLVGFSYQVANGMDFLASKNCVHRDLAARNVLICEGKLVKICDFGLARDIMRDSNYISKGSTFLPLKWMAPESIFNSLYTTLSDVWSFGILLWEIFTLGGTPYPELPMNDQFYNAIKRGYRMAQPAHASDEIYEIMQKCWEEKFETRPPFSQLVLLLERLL
# assay.notes: PDGFr tyrosine kinase assay, 32P incorporation into glutamate-tyrosine copolymer
# measurement.parameters: 50 μM ATP
Consider the following molecules; for each one, report its IC50.

query: Returns the measured IC50 for the input molecule. Input: CCn1c(=O)ccc2cnc(Nc3ccc(N4CCCCC4)cc3)cc21
result: > 50000 nM

query: Returns the measured IC50 for the input molecule. Input: Cn1c(=O)c(-c2c(Cl)cccc2Cl)cc2cnc(N)cc21
result: 2500 nM

query: Returns the measured IC50 for the input molecule. Input: Cn1c(=O)c(-c2c(Cl)cccc2Cl)cc2cnc(Nc3ccccc3)cc21
result: 1000 nM

query: Returns the measured IC50 for the input molecule. Input: CN1CCN(CCCCCNc2cc3c(cn2)cc(-c2c(Cl)cccc2Cl)c(=O)n3C)CC1
result: 850 nM

query: Returns the measured IC50 for the input molecule. Input: CCn1c(=O)ccc2cnc(Nc3ccc(N4CCOCC4)cc3)cc21
result: > 50000 nM

query: Returns the measured IC50 for the input molecule. Input: CN1CCN(c2ccc(Nc3cc4c(cn3)cc(-c3c(Cl)cccc3Cl)c(=O)n4C)cc2)CC1
result: 260 nM

query: Returns the measured IC50 for the input molecule. Input: CN1CCN(CCCNc2cc3c(cn2)cc(-c2c(Cl)cccc2Cl)c(=O)n3C)CC1
result: 890 nM

query: Returns the measured IC50 for the input molecule. Input: CN1CCN(CCCOc2ccc(Nc3cc4c(cn3)cc(-c3c(Cl)cccc3Cl)c(=O)n4C)cc2)CC1
result: 370 nM

query: Returns the measured IC50 for the input molecule. Input: Cn1c(=O)c(-c2c(Cl)cccc2Cl)cc2cnc(NCCCN3CCOCC3)cc21
result: 4700 nM

query: Returns the measured IC50 for the input molecule. Input: CCN(CC)CCCCCNc1cc2c(cn1)cc(-c1c(Cl)cccc1Cl)c(=O)n2C
result: 690 nM

query: Returns the measured IC50 for the input molecule. Input: Cn1c(=O)c(-c2c(Cl)cccc2Cl)cc2cnc(NCCCn3ccnc3)cc21
result: 1700 nM

query: Returns the measured IC50 for the input molecule. Input: CCn1c(=O)ccc2cnc(Nc3ccc(OC)cc3)cc21
result: 5000 to 50000 nM

query: Returns the measured IC50 for the input molecule. Input: COc1ccc(Nc2cc3c(cn2)cc(-c2c(Cl)cccc2Cl)c(=O)n3C)cc1
result: 1700 nM

query: Returns the measured IC50 for the input molecule. Input: CCN(CC)CCCCNc1cc2c(cn1)cc(-c1c(Cl)cccc1Cl)c(=O)n2C
result: 420 nM

query: Returns the measured IC50 for the input molecule. Input: CCN(CC)CCOc1ccc(Nc2cc3c(cn2)cc(-c2c(Cl)cccc2Cl)c(=O)n3C)cc1
result: 90 nM

query: Returns the measured IC50 for the input molecule. Input: Cn1c(=O)c(-c2c(Cl)cccc2Cl)cc2cnc(Nc3ccncc3)cc21
result: 9600 nM

###

Consider the following compounds; for each one, report its pIC50.
# pIC50: negative log10 of molar concentration; output just the value

query: Lab request: please report pIC50 under test system c-Src (Homo sapiens) for CN1CCN(CCCNc2cc3c(cn2)cc(-c2c(Cl)cccc2Cl)c(=O)n3C)CC1 [Example H]
result: 7.22

query: Lab request: please report pIC50 under test system c-Src (Homo sapiens) for CN1CCN(CCOc2ccc(Nc3cc4c(cn3)cc(-c3c(Cl)cccc3Cl)c(=O)n4C)cc2)CC1 [Example S]
result: 7.70

query: Lab request: please report pIC50 under test system c-Src (Homo sapiens) for Cn1c(=O)c(-c2c(Cl)cccc2Cl)cc2cnc(NCCCN3CCOCC3)cc21 [Example K]
result: 6.44

query: Lab request: please report pIC50 under test system c-Src (Homo sapiens) for Cn1c(=O)c(-c2c(Cl)cccc2Cl)cc2cnc(N)cc21 [Example A]
result: 6.46

query: Lab request: please report pIC50 under test system c-Src (Homo sapiens) for CCN(CC)CCOc1ccc(Nc2cc3c(cn2)cc(-c2c(Cl)cccc2Cl)c(=O)n3C)cc1 [Example P]
result: 7.10

query: Lab request: please report pIC50 under test system c-Src (Homo sapiens) for CNc1cc2c(cn1)cc(-c1c(Cl)cccc1Cl)c(=O)n2C [Example B]
result: 6.38

query: Lab request: please report pIC50 under test system c-Src (Homo sapiens) for CCN(CC)CCNc1cc2c(cn1)cc(-c1c(Cl)cccc1Cl)c(=O)n2C [Example D]
result: 4.89

query: Lab request: please report pIC50 under test system c-Src (Homo sapiens) for Cn1c(=O)c(-c2c(Cl)cccc2Cl)cc2cnc(Nc3ccccc3)cc21 [Example M]
result: 6.10

// data source = patent US6150359A
